assay: A CellTox Green Cytotoxicity Assay to monitor cytotoxicity in HEK293 cells - 32 hour (AID 1224881); conditions: CellTox Green fluorescence; series mostly up to 76.8 µM; further: on the % scale 0 is the no-effect control and ±100 the full control effect; nearly all actives have a fitted effect of over 40% in size
Results filed as inconclusive are left out. Active and inactive are the calls of the source. The call rests on the fitted dose curve; in most records, active means well fitted activation curve with a large enough effect in the repeat runs; inconclusive means weak or mixed curves; inactive means flat fitted curve, though single readings scatter.
reportedMetric: cytotoxicity increase

Clc1nc(Cl)nc(Nc2ccccc2Cl)n1	inactive
CC1NCCOC1c1ccccc1 (configuration not stated)	inactive
BrCC1CO1 (configuration not stated)	inactive
CCC1(c2ccccc2)C(=O)N(COC)C(=O)N(COC)C1=O	inactive

# cytotoxicity increase (compound: `CC(=O)OCC1=C(C(=O)O)N2C(=O)[C@@H](N)[C@H]2SC1` ) is -3.48% [at 15.8 µM] (inactive)

Quick note, cytotoxicity increase for `COc1ccc(C=O)cc1O` landed at inactive

The measured cytotoxicity increase associated with `S=C=S` reads inactive

The value of cytotoxicity increase measured for the compound `COC[C@@H](NC(C)=O)C(=O)NCc1ccccc1` turned out to be inactive

For reference, reported cytotoxicity increase for `[P]#[In]` stands at inactive

Input `O=C(Cl)CCl` . Output cytotoxicity increase: inactive

// field: cytotoxicity increase; key: `CC[C@@H](CO)NC(=O)[C@@H]1C=C2c3cccc4[nH]cc(c34)C[C@H]2N(C)C1` ; value = inactive

cytotoxicity increase measured on CC1N=C(N)OC1c1ccccc1 (configuration not stated) = inactive

Form: compound = `C[C@H](N)C(=O)c1ccccc1` ; cytotoxicity increase = inactive

Given item `CCN[C@@H](C)Cc1ccccc1` , the value recorded as its cytotoxicity increase is inactive

cytotoxicity increase reading for CCOC(=O)C(SP(=S)(OC)OC)c1ccccc1 (configuration not stated) : inactive

The reported cytotoxicity increase of the compound CCC1(c2cccc(O)c2)CCCCN(C)C1 (configuration not stated) was inactive

cytotoxicity increase measured on `O=S1(=O)OCCO1` = inactive

Where these numbers come from: PubChem BioAssay (Tox21)
